Origin of values: PubChem BioAssay (NCI)

TGI values by entry
Test system: A498 renal
assayProtocol: NCI tumour cell line growth inhibition, 48 h
measuredQuantity: TGI

1. O=C1CCC(=O)c2ccccc2N1; > 100 µM
2. O=c1ccn(C/C=C/c2ccccc2)c(=S)n1C/C=C/c1ccccc1; > 100 µM
3. Nc1c(F)c(F)c2c(c1F)N(CCCCCl)c1ccccc1S2; > 100 µM
4. CC(=O)OC(C(=O)[O][Ge]([CH3])([CH3])[CH3])c1ccccc1 (stereo unspecified); > 100 µM
5. COc1nc(=O)[nH]c2c1C(c1ccc([N+](=O)[O-])cc1)c1c(OC)nc(=O)[nH]c1O2; > 100 µM
6. COc1cc(-c2oc3c(OC)c(O)c(OC)c(O)c3c(=O)c2OC)cc(OC)c1OC; > 100 µM

---

log10 of TGI values by entry
Tested on: NCI-H460 lung
assayProtocol: NCI tumour cell line growth inhibition, 48 h
measuredQuantity: log10 of TGI (log10 of the value in µM)

1. CCCCCCCCCCCCCCCCCCN(C)CC(COC)OP(=O)([O-])OCC[N+](C)(C)C (centres undefined); 0.37
2. c1cc[n+](Cc2c3ccccc3cc3c2ccc2ccccc23)cc1; 1.08
3. CN(C)CC1(Cc2ccccc2)CC/C(=C\c2ccccc2)C1=O (centres undefined); 1.83
4. O=C1/C(=C/c2ccc(Cl)cc2)CN(Cc2cn(CCCNc3ccnc4cc(Cl)ccc34)nn2)C/C1=C\c1ccc(Cl)cc1; 0.31
5. CCN1CCN(Cc2ccc(Nc3ncc(F)c(-c4cc(F)c5nc(C)n(C(C)C)c5c4)n3)nc2)CC1; 1.10
6. COc1ccc2[nH]c(C(=O)OCc3ccc4c(Br)cc(Br)c(O)c4n3)cc2c1; 0.50
7. C=C(C(=O)c1ccccc1)C(NC(C)(C)C)c1ccccc1 (centres undefined); 0.72

---

TGI values by entry
System: COLO 205 colon
assayProtocol: NCI tumour cell line growth inhibition, 48 h
measuredQuantity: TGI

1) Nc1c(S(=O)(=O)O)cc(S(=O)(=O)O)c2ccc(N=Nc3ccccc3)c(O)c12; > 100 µM
2) COc1ccc(COCC[C@H](C)OC2OC(CO[Si](C)(C)C(C)(C)C)C(O)C(O)C2O)cc1 (stereo partly drawn); > 100 µM
3) COc1ccc(-c2cc(=O)c3c(OC)c4ccoc4c(/C=C/C=O)c3o2)cc1; 80.4 µM

---

TGI values by entry
Tested on: SK-MEL-28 melanoma
assayProtocol: NCI tumour cell line growth inhibition, 48 h
measuredQuantity: TGI

1) COc1nc(=O)[nH]c2c1C(c1ccc([N+](=O)[O-])cc1)c1c(OC)nc(=O)[nH]c1O2; > 100 µM
2) CNC(=O)O/N=C1\N(C)CN(c2ccccc2)C12CCN(CCCC(=O)c1ccc(F)cc1)CC2; > 100 µM
3) O=c1[nH][nH]c(=O)n1Cc1ccccc1; > 100 µM

---

Tested on: HOP-62 NSCLC
assayProtocol: NCI tumour cell line growth inhibition, 48 h
TGI values by entry
measuredQuantity: TGI (µM)

1) Cc1csc2nc(-c3cc([N+](=O)[O-])c(Cl)cc3Cl)c(/C=N/N=C(N)N)n12; 35
2) COc1ccc2nc3cc([N+](=O)[O-])ccc3c(NCCO)c2c1; 5.19
3) O=S(=O)(O)c1c(Cl)c(Cl)c(O)c2ncccc12; 17.6
4) COc1ccc2nc3c4c(nccc4c2c1)-c1ncccc1C3=O; 0.402
5) CSC1=CC(=O)c2ccccc2C1=O; 31.8
6) C=C(C)COc1ccc2c(c1)CCC1C2CCC2(C)C(=O)/C(=N/O)CC12 (centres undefined); 21.2
7) COc1ccc(-c2cc(=O)c3c(OC)c4ccoc4c(/C=C/C=O)c3o2)cc1; 11.1
8) C[C@@]12CC[C@@H](O)C[C@@H]1CC[C@H]1[C@H]2CC[C@@]2(C)[C@H](c3ccc(=O)oc3)CC[C@@]12O; 0.0156
9) CC(C)C[C@H](NC(=O)[C@@H](Cc1ccccc1)n1ccc(Nc2ccccc2)cc1=O)B(O)O; 7.04
10) Cc1cc(S(=O)(=O)Nc2nc3ccccc3c(=O)n2Cc2ccco2)c(S)cc1Cl; 69.6
11) Nc1nc(N)c2cc(S(=O)(=O)c3ccc4ccccc4c3)ccc2n1; 30.3
12) CCOC(=O)C#Cc1cccc(C#CC(=O)OCC)c1; 11.6

---

Test system: T-47D breast
assayProtocol: NCI tumour cell line growth inhibition, 48 h
TGI values by entry
measuredQuantity: TGI

1) Cc1ccc(NC(=S)NNC(=S)Nc2ccc(C)cc2)cc1; > 100 µM
2) COc1cc(-c2oc3c(OC)c(O)c(OC)c(O)c3c(=O)c2OC)cc(OC)c1OC; > 100 µM
3) COc1ccc(C[C@H]2COC(=O)[C@@H]2Cc2ccc(Br)cc2)cc1OC; > 100 µM
4) CNC(=O)O/N=C1\N(C)CN(c2ccccc2)C12CCN(CCCC(=O)c1ccc(F)cc1)CC2; > 100 µM
5) COc1ccc(/C=C2/SC(=Nc3ccccc3)N(NC(=O)Cc3ccccc3)C2=O)cc1; > 100 µM
6) COc1ccc2c(c1)OCC1c3cc(OC)c4ccccc4c3OC21 (configuration not stated); 47 µM
7) O=C1CCc2cc(Br)ccc2O1; > 100 µM
8) Cc1cn(CC(=S)NCCc2c[nH]c3ccccc23)c(=O)[nH]c1=O; > 100 µM
9) CC1(C=O)CC(CCc2ccccc2)NC1Cc1ccc(O)cc1 (configuration not stated); 40.9 µM
10) Cc1n[nH]c(=O)n1/N=C/c1ccco1; > 100 µM
11) O=[N+]([O-])C(C(Cl)=C(Cl)Cl)=C(N1CCCCC1)N1CCCCC1; > 100 µM
12) c1cc[n+](Cc2c3ccccc3cc3c2ccc2ccccc23)cc1; 7.92 µM
13) CS(=O)(=O)Nc1cc(-c2ccc3ncc(C#N)c(Nc4ccc(F)c(Cl)c4)c3c2)cnc1Cl; 0.403 µM
14) Cc1nn(CNc2ccc(F)c(Cl)c2)c(=S)n1/N=C/c1ccc(-c2ccc(Cl)cc2Cl)o1; 58.8 µM
15) C=C(C(=O)c1ccccc1)C(NC(C)(C)C)c1ccccc1 (configuration not stated); 6.78 µM
16) N#CCCC1(CCC#N)S(=O)(=O)OCCOS1(=O)=O; > 100 µM
17) CC(C)N(C(C)C)S(=O)(=O)CC12CCC(C/C1=N\O)C2 (configuration not stated); > 100 µM

---

Tested on: PC-3 prostate
assayProtocol: NCI tumour cell line growth inhibition, 48 h
TGI values by entry
measuredQuantity: TGI

1. C=C1N(C)c2ccc(S(=O)(=O)c3ccc4c(c3)C(C)(C)C(=C)N4C)cc2C1(C)C; > 100 µM
2. COc1ccc2nc3cccc([N+](=O)[O-])c3c(NCCC(=O)O)c2c1; > 10 µM
3. CC1(C)N=C(N)N=C(N)N1c1ccc(OCC(=O)Nc2ccc(S(=O)(=O)F)cc2Cl)c(Cl)c1; > 100 µM
4. c1ccc2c(c1)CCN1CCc3ccccc3C1C2 (stereo unspecified); > 100 µM
5. COc1ccc(OC)c(C2=C(c3cn(C)c4ccccc34)C(=O)NC2=O)c1; > 25 µM
6. C/C(=C\[Si](C)(C)c1ccco1)C(C)(O)[C@H](C)O (stereo partly specified); > 100 µM
7. Cc1cc(S(=O)(=O)Nc2nc3ccccc3c(=O)n2Cc2ccco2)c(S)cc1Cl; > 100 µM
8. Cn1c2c(c3ccccc31)CCN1C[C@@H]3CCCC[C@H]3C[C@@H]21; > 100 µM
9. C1=NN2C(c3ccccc3)=NOC2C2C(c3ccccc3)=NOC12 (stereo unspecified); > 100 µM
10. Cc1nc(C)c(N2CCN(Cc3ccccc3)CC2)c(=O)[nH]1; > 100 µM
11. CC[C@]12C=CCN3CC[C@@]4(c5ccc(OC)cc5N(C)[C@H]4[C@@](O)(C(=O)OC)[C@@H]1OC(=O)CCC(=O)O[C@H]1CC[C@H]4[C@@H]5CCC6=CC(=O)CC[C@@H]6[C@H]5CC[C@]14C)[C@@H]32; > 50 µM

---

TGI values by entry
Tested on: ACHN renal
assayProtocol: NCI tumour cell line growth inhibition, 48 h
measuredQuantity: TGI

1) Cn1c2ncccc2n2c(=O)cc(O)cc12; > 100 µM
2) CC1(C)N=C(N)N=C(N)N1c1ccc(OCC(=O)Nc2ccc(S(=O)(=O)F)cc2Cl)c(Cl)c1; > 100 µM
3) O=C(O)C1=C(CO)Oc2cc3c(cc2C1c1ccc2c(c1)OCO2)OCO3 (stereo not drawn); > 100 µM

---

TGI values by entry
Test system: T-47D breast
assayProtocol: NCI tumour cell line growth inhibition, 48 h
measuredQuantity: TGI

1. CC(CC(=O)N1C2CC3CCC2(CS1(=O)=O)C3(C)C)[Si](C)(C)C (stereo unspecified); > 100 µM
2. O=C1NC(c2ccc3ccccc3c2)Nc2ccccc21 (stereo unspecified); > 100 µM
3. CS(=O)(=O)N1CCC(Nc2ncc(C(=O)c3c(F)cccc3F)c(N)n2)CC1; > 25 µM
4. O=C(CCN1CCCCC1)c1csc2ccccc12; > 100 µM
5. C1CSCCSCCSCCSCCS1; > 100 µM
6. Cc1cc2c(cc1Cl)SC(NNCCO)=NS2(=O)=O; > 100 µM
